# experiment summary: cell viability (AlamarBlue) in SARS-CoV-2-infected Vero E6/TMPRSS2 cells
# Format: cell-based
# experimental context: African green monkey, Vero E6/TMPRSS2 cells infected with SARS-CoV-2, half-maximal cytotoxic concentration, read-out: SARS-CoV2 CC50

# line notation, CC50
measured = [
    ("COc1ccncc1C#Cc1snc2cc(-c3ccc(OC)c(OC)c3)cnc12", "< 10 µM"),
    ("COCCNC(=O)c1cccc(-c2cnc3c(C#Cc4cccnc4)snc3c2)c1", "> 20 µM"),
    ("COc1ccc(-c2cnc3c(C#Cc4cncc(F)c4)snc3c2)cc1OC", "> 20 µM"),
    ("COc1ccc(-c2cnc3c(C#Cc4cnc5ccccc5c4)snc3c2)cc1OC", "< 10 µM"),
    ("Fc1ccccc1-c1cnc2c(C#Cc3cccnc3)snc2c1", "> 20 µM"),
    ("C(#Cc1snc2cc(-c3ccc(OCCN4CCOCC4)cc3)cnc12)c1cccnc1", "> 20 µM"),
    ("COc1cccc(C#Cc2snc3cc(-c4ccc(OC)c(OC)c4)cnc23)c1", "< 10 µM"),
    ("COc1ccc(-c2cnc3c(C#Cc4cnccc4C)snc3c2)cc1OC", "> 20 µM"),
    ("NC(=O)c1ccc(-c2cnc3c(C#Cc4cccnc4)snc3c2)cc1", "> 20 µM"),
]

---

This section presents molecules with their documented IC50 values.
# target or system: PIKfyve (Homo sapiens, UniProt Q9Y2I7)
# Construct: purchased Nanosyn, Santa Clara, CA, USA (contract assay service)
# Sequence (Q9Y2I7 whole entry): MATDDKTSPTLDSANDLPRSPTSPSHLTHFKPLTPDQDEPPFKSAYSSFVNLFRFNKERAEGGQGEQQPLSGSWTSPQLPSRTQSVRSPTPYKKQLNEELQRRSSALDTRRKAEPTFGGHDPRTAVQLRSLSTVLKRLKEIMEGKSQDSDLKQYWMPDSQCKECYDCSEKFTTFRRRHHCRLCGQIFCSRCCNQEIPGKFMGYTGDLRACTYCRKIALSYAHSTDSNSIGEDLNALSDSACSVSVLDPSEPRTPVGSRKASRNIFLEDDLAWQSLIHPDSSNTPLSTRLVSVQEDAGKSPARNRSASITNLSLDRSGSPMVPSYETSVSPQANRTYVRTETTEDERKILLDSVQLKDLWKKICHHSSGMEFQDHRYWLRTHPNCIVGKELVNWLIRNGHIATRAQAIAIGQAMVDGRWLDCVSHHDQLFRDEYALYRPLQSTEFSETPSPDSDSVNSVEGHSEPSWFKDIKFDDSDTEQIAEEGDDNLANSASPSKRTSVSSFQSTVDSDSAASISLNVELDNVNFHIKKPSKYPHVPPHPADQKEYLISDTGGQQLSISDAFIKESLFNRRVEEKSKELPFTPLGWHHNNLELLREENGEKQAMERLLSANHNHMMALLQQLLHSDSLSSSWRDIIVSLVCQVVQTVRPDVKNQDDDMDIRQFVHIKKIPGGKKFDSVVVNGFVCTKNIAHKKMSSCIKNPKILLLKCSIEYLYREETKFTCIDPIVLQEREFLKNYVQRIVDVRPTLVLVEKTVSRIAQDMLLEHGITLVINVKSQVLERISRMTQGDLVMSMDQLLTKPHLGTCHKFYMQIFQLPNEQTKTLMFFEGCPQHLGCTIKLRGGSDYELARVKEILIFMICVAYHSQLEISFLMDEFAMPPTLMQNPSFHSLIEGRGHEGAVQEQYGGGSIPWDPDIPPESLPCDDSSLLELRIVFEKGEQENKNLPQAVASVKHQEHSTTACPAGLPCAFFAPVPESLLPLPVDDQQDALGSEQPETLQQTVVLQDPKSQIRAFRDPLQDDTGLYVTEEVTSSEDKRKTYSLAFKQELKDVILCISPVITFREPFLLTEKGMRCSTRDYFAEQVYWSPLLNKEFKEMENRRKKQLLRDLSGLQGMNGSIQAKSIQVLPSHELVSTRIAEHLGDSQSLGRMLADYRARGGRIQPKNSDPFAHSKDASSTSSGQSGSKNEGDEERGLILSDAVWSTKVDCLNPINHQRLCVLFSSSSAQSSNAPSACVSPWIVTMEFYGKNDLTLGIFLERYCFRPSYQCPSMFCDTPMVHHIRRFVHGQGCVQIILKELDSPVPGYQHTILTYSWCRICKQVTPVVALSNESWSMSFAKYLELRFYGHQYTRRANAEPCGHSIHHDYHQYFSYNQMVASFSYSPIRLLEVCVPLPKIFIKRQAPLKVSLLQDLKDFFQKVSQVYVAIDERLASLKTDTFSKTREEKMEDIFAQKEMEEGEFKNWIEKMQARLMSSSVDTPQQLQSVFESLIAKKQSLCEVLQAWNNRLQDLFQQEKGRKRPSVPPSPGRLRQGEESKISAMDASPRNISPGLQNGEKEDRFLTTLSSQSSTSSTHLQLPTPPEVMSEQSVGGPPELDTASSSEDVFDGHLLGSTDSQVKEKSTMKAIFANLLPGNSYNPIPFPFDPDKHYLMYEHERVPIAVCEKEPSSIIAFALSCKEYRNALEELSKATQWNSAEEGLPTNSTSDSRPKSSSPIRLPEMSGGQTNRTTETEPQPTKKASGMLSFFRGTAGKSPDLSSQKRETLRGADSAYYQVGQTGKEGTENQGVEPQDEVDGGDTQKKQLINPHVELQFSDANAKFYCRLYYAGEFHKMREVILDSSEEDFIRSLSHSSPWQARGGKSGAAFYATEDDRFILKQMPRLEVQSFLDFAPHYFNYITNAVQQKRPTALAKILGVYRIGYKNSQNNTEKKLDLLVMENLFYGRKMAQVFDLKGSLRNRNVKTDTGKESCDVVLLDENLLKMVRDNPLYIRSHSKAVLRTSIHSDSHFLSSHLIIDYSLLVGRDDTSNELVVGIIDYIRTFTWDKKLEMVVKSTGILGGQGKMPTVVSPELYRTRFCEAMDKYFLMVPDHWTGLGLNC
# experiment summary: biochemical PIKfyve mobility shift assay (Nanosyn)
# experimental context: Table 5 column
parameter: IC50 (nM)

# line notation, value reported
measured = [
    ("COc1ccc(-c2cnc3c(C#Cc4cncc(F)c4)snc3c2)cc1OC", 98),
    ("COc1cccc(-c2cnc3c(C#Cc4cccnc4)snc3c2)c1", 6.8),
    ("Clc1cccc(-c2cnc3c(C#Cc4cccnc4)snc3c2)c1", 21),
    ("COc1cncc(C#Cc2snc3cc(-c4ccc(OC)c(OC)c4)cnc23)c1", 3.3),
    ("NC(=O)c1ccc(-c2cnc3c(C#Cc4cccnc4)snc3c2)cc1", 1.6),
    ("COc1cc(-c2cnc3c(C#Cc4cccnc4)snc3c2)ccc1C(=O)O", 49),
    ("COCCNC(=O)c1cccc(-c2cnc3c(C#Cc4cccnc4)snc3c2)c1", 1.9),
    ("COc1cc(-c2cnc3c(C#Cc4cccnc4)snc3c2)ccc1N", 2.8),
    ("COc1ccncc1C#Cc1snc2cc(-c3ccc(OC)c(OC)c3)cnc12", 19),
    ("COc1ccc(-c2cnc3c(C#Cc4cnc5ccccc5c4)snc3c2)cc1OC", 5690),
    ("COc1ccc(-c2cnc3c(C#Cc4ccccc4F)snc3c2)cc1OC", 62),
]

---

# target or system: PIKfyve (Homo sapiens, UniProt Q9Y2I7)
# Construct: purchased Nanosyn, Santa Clara, CA, USA (contract assay service)
# experiment summary: biochemical PIKfyve mobility shift assay (Nanosyn)
# experimental context: Tables 1-4 and text
parameter: IC50

# compound, value reported
data = [
    ("CC(C)Oc1ccc(-c2cnc3c(C#Cc4cccnc4)snc3c2)cc1 [Compound 3e]", "20 nM"),
    ("COc1cncc(C#Cc2snc3cc(-c4ccc(OC)c(OC)c4)cnc23)c1 [Compound 7l]", "3.3 nM"),
    ("COc1ccc(-c2cnc3c(C#Cc4cc(F)cnc4OC)snc3c2)cc1OC [Compound 7t]", "> 10000 nM"),
    ("COc1ccc(C#Cc2snc3cc(-c4ccc(OC)c(OC)c4)cnc23)c(OC)n1 [Compound 7u]", "5670 nM"),
    ("COc1ccc(-c2cnc3c(C#Cc4cnc5ccccc5c4)snc3c2)cc1OC [Compound 7w]", "5690 nM"),
    ("COc1ccc(-c2cnc3c(C#CCNC(=O)Nc4ccccc4)snc3c2)cc1OC [Compound 11c]", "> 10000 nM"),
    ("COc1ccc(-c2cnc3c(C#Cc4cncc(C)c4)snc3c2)cc1OC [Compound 7i]", "2 nM"),
    ("COc1ccc(-c2cnc3c(/C=C(\\OCCN(C)C)c4cccnc4)snc3c2)cc1OC [Compound 23b]", "309 nM"),
    ("COc1ccc(-c2cnc3c(C#Cc4ccc(C)nc4)snc3c2)cc1OC [Compound 7g]", "360 nM"),
    ("O=C(c1cccc(-c2cnc3c(C#Cc4cccnc4)snc3c2)c1)N1CCCC1 [Compound 3r]", "6.1 nM"),
]
